Kindly supply the reported IC50 at 72 h values for the records listed here.
assay: Cytotoxicity assay (SRB), A549; format: cell-based; details: human, A549 (lung cancer) cells, A549, 72 h

Entry CC1CCC2C(C=CC(C)(O)C2(C)C(=O)CCO)C1 (centres unmarked) has what IC50 at 72 h? > 100 µM

Can you look up the measured IC50 at 72 h of CCC(C)C1NC(=O)C(C(C)C)n2c1nc1ccc(OC)cc1c2=O (centres unmarked) [Compound 2, versicomide A] for me? 13 to 50 µM

Request the reported IC50 at 72 h associated with CCC(C)C1NC(=O)C(C(C)C)n2c1nc1c(c2=O)C=C(OC)C=CO1 (centres unmarked) 13 to 50 µM

I am curious: what IC50 at 72 h value has been reported for CC1C(=O)N2c3ccccc3C3(O)CC(n4cnc5ccccc5c4=O)C(=O)N1C23 (centres unmarked) ? 13 to 50 µM

Consider the compound COc1cc([C@@H]2c3cc4c(cc3[C@@H](O[C@@H]3O[C@@H]5CO[C@@H](C)O[C@H]5[C@H](O)[C@H]3O)[C@H]3COC(=O)[C@H]23)OCO4)cc(OC)c1O [etoposide, reference compound] and give its measured IC50 at 72 h. 0.5 µM

Form field: reported IC50 at 72 h of CCC1C(=O)N2c3ccccc3C3(O)CC(n4cnc5ccccc5c4=O)C(=O)N1C23 (centres unmarked) 13 to 50 µM

Need IC50 at 72 h, item CC(C)C1C(=O)N2c3ccccc3C3(O)CC(n4cnc5ccccc5c4=O)C(=O)N1C23 (centres unmarked) 13 to 50 µM

So what does the record say about IC50 at 72 h for CC12NC(=O)C(Cc3c1[nH]c1ccccc31)n1c2nc2ccccc2c1=O (centres unmarked) ? > 100 µM
